target: Nuclear receptor subfamily 4 group A member 2 (Homo sapiens) (UniProt P43354); assay: ATG_NURR1_TRANS: Attagene TRANS-FACTORIAL HepG2 Assay for human Nuclear Receptor Related Protein 1 (NURR1) (AID 2282985); details: HepG2 Attagene TRANS reporter, mRNA readout
Sequence (P43354 whole entry, looked up): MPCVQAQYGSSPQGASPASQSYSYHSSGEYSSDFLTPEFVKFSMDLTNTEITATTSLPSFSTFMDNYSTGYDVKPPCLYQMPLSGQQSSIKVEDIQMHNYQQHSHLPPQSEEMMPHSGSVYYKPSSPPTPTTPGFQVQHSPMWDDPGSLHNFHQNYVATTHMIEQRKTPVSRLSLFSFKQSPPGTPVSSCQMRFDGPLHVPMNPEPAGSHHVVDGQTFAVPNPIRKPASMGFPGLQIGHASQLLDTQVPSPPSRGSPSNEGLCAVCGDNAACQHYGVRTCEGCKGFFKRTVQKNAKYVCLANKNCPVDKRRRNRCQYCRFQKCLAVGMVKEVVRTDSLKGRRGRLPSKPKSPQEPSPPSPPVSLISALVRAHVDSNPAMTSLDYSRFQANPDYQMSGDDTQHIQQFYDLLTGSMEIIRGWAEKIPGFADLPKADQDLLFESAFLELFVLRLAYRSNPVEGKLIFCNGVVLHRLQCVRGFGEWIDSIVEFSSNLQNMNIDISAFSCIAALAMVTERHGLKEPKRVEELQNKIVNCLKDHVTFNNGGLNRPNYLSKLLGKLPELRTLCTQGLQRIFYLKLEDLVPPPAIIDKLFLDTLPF
Inconclusive results are not listed. Calls of active or inactive are those of the source. The calls were made as follows: active = hit-call score of the fitted dose curve at least 0.9, where 1 is the maximum; inconclusive = response in the unintended direction; inactive = score below 0.9.
Possible outcomes: active, inactive

[
  {
    "compound": "ClC1=C(Cl)[C@]2(Cl)[C@H]3[C@H]([C@@H]4C=C[C@H]3C4)[C@@]1(Cl)C2(Cl)Cl",
    "category": "inactive"
  },
  {
    "compound": "C=CCc1ccc2c(c1)OCO2",
    "category": "inactive"
  },
  {
    "compound": "Cc1cccc(N)c1N",
    "category": "inactive"
  },
  {
    "compound": "Nc1ccc(N=Nc2ccccc2)cc1",
    "category": "inactive"
  },
  {
    "compound": "COC(=O)Nc1nc2ccccc2[nH]1",
    "category": "inactive"
  },
  {
    "compound": "N#CC(Br)(Br)C(N)=O",
    "category": "inactive"
  },
  {
    "compound": "Cc1ccc(N)cc1",
    "category": "inactive"
  },
  {
    "compound": "CC(C)N(Cc1ccccc1)C(=O)C(C)(C)C",
    "category": "inactive"
  },
  {
    "compound": "Nc1ccc(Oc2ccc(N)cc2)cc1",
    "category": "inactive"
  },
  {
    "compound": "[O-][Cl+]O",
    "category": "inactive"
  },
  {
    "compound": "CCNS(=O)(=O)C(F)(F)C(F)(F)C(F)(F)C(F)(F)C(F)(F)C(F)(F)C(F)(F)C(F)(F)F",
    "category": "inactive"
  },
  {
    "compound": "OCCCBr",
    "category": "inactive"
  },
  {
    "compound": "Nc1ccc(Cl)cc1N",
    "category": "inactive"
  },
  {
    "compound": "CCCCCCCCCCCCCN1CC(C)OC(C)C1 (stereo not drawn)",
    "category": "inactive"
  },
  {
    "compound": "c1ccc2c(c1)oc1ccccc12",
    "category": "inactive"
  },
  {
    "compound": "CCC[CH2][Sn]([Cl])([CH2]CCC)[CH2]CCC",
    "category": "active"
  },
  {
    "compound": "CC(O)CCO (stereo not drawn)",
    "category": "inactive"
  },
  {
    "compound": "CCN(CC)CCO",
    "category": "inactive"
  }
]

---

target: Hepatocyte nuclear factor 6 (Homo sapiens) (UniProt Q9UBC0); assay: ATG_HNF6_CIS: Attagene CIS-FACTORIAL HepG2 Assay for human Hepatocyte Nuclear Factor 6 (HNF6) (AID 2282952); settings: HepG2 Attagene cis-factorial HNF6 reporter transcription; actives raise or lower the signal
Sequence (Q9UBC0 whole entry, looked up): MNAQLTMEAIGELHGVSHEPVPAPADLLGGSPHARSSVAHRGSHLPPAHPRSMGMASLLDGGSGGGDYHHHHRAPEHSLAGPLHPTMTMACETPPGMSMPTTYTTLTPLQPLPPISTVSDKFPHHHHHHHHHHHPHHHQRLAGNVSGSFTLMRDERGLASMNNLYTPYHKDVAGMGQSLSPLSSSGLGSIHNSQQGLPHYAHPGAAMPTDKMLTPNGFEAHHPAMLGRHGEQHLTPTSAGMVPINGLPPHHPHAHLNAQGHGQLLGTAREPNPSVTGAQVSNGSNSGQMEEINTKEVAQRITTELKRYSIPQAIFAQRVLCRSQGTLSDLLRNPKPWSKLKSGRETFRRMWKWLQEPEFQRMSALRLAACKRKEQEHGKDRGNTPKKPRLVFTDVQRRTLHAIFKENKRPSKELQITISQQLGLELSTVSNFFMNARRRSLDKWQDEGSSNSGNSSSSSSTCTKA
Activity calls are given as the source filed them. The calls were made as follows: active = hit-call score of the fitted dose curve at least 0.9, where 1 is the maximum; inactive = score below 0.9.
Possible outcomes: active, inactive

[
  {
    "compound": "CC(C)(C)OOC(C)(C)CCC(C)(C)OOC(C)(C)C",
    "study.system": "Hepatocyte nuclear factor 6 (Homo sapiens) (UniProt Q9UBC0)",
    "category": "inactive"
  },
  {
    "compound": "CCCCC(CC)COC(=O)c1ccc(C(=O)OCC(CC)CCCC)c(C(=O)OCC(CC)CCCC)c1 (centres undefined)",
    "study.system": "Hepatocyte nuclear factor 6 (Homo sapiens) (UniProt Q9UBC0)",
    "category": "inactive"
  },
  {
    "compound": "O=C(O)C1C2CCC(O2)C1C(=O)O (centres undefined)",
    "study.system": "Hepatocyte nuclear factor 6 (Homo sapiens) (UniProt Q9UBC0)",
    "category": "inactive"
  },
  {
    "compound": "CCCCCCCCn1sccc1=O",
    "study.system": "Hepatocyte nuclear factor 6 (Homo sapiens) (UniProt Q9UBC0)",
    "category": "active"
  },
  {
    "compound": "C[N+](C)(C)CC1CO1 (centres undefined)",
    "study.system": "Hepatocyte nuclear factor 6 (Homo sapiens) (UniProt Q9UBC0)",
    "category": "inactive"
  },
  {
    "compound": "c1ccc2c(c1)-c1cccc3cccc-2c13",
    "study.system": "Hepatocyte nuclear factor 6 (Homo sapiens) (UniProt Q9UBC0)",
    "category": "inactive"
  },
  {
    "compound": "CC(C)COC(=O)c1ccccc1C(=O)OCC(C)C",
    "study.system": "Hepatocyte nuclear factor 6 (Homo sapiens) (UniProt Q9UBC0)",
    "category": "inactive"
  },
  {
    "compound": "O=[N+]([O-])c1ccc(Oc2ccc(Cl)cc2Cl)cc1",
    "study.system": "Hepatocyte nuclear factor 6 (Homo sapiens) (UniProt Q9UBC0)",
    "category": "inactive"
  },
  {
    "compound": "Oc1ccccc1Cl",
    "study.system": "Hepatocyte nuclear factor 6 (Homo sapiens) (UniProt Q9UBC0)",
    "category": "inactive"
  },
  {
    "compound": "Cn1cc(-c2ccccc2)c(=O)c(-c2cccc(C(F)(F)F)c2)c1",
    "study.system": "Hepatocyte nuclear factor 6 (Homo sapiens) (UniProt Q9UBC0)",
    "category": "inactive"
  },
  {
    "compound": "c1ccc2c(c1)oc1ccccc12",
    "study.system": "Hepatocyte nuclear factor 6 (Homo sapiens) (UniProt Q9UBC0)",
    "category": "inactive"
  },
  {
    "compound": "Nc1ccc(Cc2ccc(N)cc2)cc1",
    "study.system": "Hepatocyte nuclear factor 6 (Homo sapiens) (UniProt Q9UBC0)",
    "category": "inactive"
  },
  {
    "compound": "CNC(=O)Oc1cccc2c1OC(C)(C)C2",
    "study.system": "Hepatocyte nuclear factor 6 (Homo sapiens) (UniProt Q9UBC0)",
    "category": "inactive"
  },
  {
    "compound": "Brc1ccc(Oc2ccccc2)cc1",
    "study.system": "Hepatocyte nuclear factor 6 (Homo sapiens) (UniProt Q9UBC0)",
    "category": "inactive"
  }
]

---

assay: APR_HepG2_CellLoss_24hr: Apredica 24-hour HepG2 Assay for Cell Loss (AID 2282908); conditions: high-content imaging
The source made the active and inactive calls. How the source made its calls: active means hit-call score of the fitted dose curve at least 0.9, where 1 is the maximum; inactive means score below 0.9.
Possible outcomes: Yes (active), No (inactive)

[
  {
    "compound": "c1ccc(N=Nc2ccccc2)cc1",
    "category": "No"
  },
  {
    "compound": "Cc1cc(N=Nc2ccccc2C)ccc1N",
    "category": "Yes"
  },
  {
    "compound": "CN(C)c1ccc(C(=O)c2ccc(N(C)C)cc2)cc1",
    "category": "Yes"
  },
  {
    "compound": "Cc1ccc(N)c(N)c1",
    "category": "No"
  },
  {
    "compound": "CCC12COCN1COC2",
    "category": "No"
  },
  {
    "compound": "CCCCCCCCn1sccc1=O",
    "category": "Yes"
  },
  {
    "compound": "CCOc1cccc(C2(N3CCN(c4ccccc4)CC3)CCC(C)CC2)c1 (stereo not given)",
    "category": "No"
  },
  {
    "compound": "Nc1ccc(Cl)cc1N",
    "category": "No"
  },
  {
    "compound": "Oc1ccccc1Cl",
    "category": "No"
  },
  {
    "compound": "Brc1ccc(Oc2ccccc2)cc1",
    "category": "Yes"
  },
  {
    "compound": "Clc1ccc(C(c2ccc(Cl)cc2)C(Cl)Cl)cc1",
    "category": "Yes"
  },
  {
    "compound": "O=C(O)C1C2CCC(O2)C1C(=O)O (stereo not given)",
    "category": "No"
  },
  {
    "compound": "CCN(CC)CCO",
    "category": "No"
  },
  {
    "compound": "O=[N+]([O-])c1ccc(Oc2ccc(Cl)cc2Cl)cc1",
    "category": "Yes"
  },
  {
    "compound": "CN(C)C(=O)Nc1ccc(Cl)cc1",
    "category": "No"
  }
]

---

Assay: ATG_GRE_CIS: Attagene CIS-FACTORIAL HepG2 Assay for human Glucocorticoid Response Elements (GRE) (AID 2282947)
Conditions: HepG2 GRE cis-reporter, Attagene multiplex mRNA; actives raise or lower the signal
Method: ATG_CIS is a cell-based, multiplexed-readout assay that uses HepG2, a human liver cell line, with measurements taken at 24 hours after chemical dosing in a 24-well plate.ATG_GRE_CIS is one of 52 assay component(s) measured or calculated from the ATG_CIS assay. […] This assay endpoint, ATG_GRE_CIS, was analyzed with bidirectional fitting relative to DMSO as the negative control and baseline of activity. […]
Active and inactive are the calls of the source. How the source made its calls: active means hit-call score of the fitted dose curve at least 0.9, where 1 is the maximum; inactive means score below 0.9.
Possible outcomes: Yes for active, No for inactive

[
  {
    "molecule": "CCCCCCCCCCCCCN1CC(C)OC(C)C1 (stereo unspecified)",
    "category": "No"
  },
  {
    "molecule": "CCC[CH2][Sn]([Cl])([CH2]CCC)[CH2]CCC",
    "category": "No"
  },
  {
    "molecule": "CC(C)(C)OOC(C)(C)CCC(C)(C)OOC(C)(C)C",
    "category": "No"
  },
  {
    "molecule": "CCCSC(=O)N(CCC)CCC",
    "category": "No"
  },
  {
    "molecule": "CCCCCCCCOC(=O)c1ccc(C(=O)OCCCCCCCC)c(C(=O)OCCCCCCCC)c1",
    "category": "No"
  },
  {
    "molecule": "c1ccc(N=Nc2ccccc2)cc1",
    "category": "No"
  },
  {
    "molecule": "Clc1ccc(C(c2ccc(Cl)cc2)C(Cl)(Cl)Cl)cc1",
    "category": "No"
  },
  {
    "molecule": "O=C1CCCO1",
    "category": "No"
  },
  {
    "molecule": "CC(C)COC(=O)c1ccccc1C(=O)OCC(C)C",
    "category": "No"
  },
  {
    "molecule": "COP(=S)(OC)SCN1C(=O)c2ccccc2C1=O",
    "category": "No"
  },
  {
    "molecule": "CC(C)(OOC(C)(C)c1ccccc1)c1ccccc1",
    "category": "Yes"
  },
  {
    "molecule": "Cn1cc(-c2ccccc2)c(=O)c(-c2cccc(C(F)(F)F)c2)c1",
    "category": "No"
  },
  {
    "molecule": "ClC1=C(Cl)C2(Cl)C3C(Cl)C=CC3C1(Cl)C2(Cl)Cl (stereo unspecified)",
    "category": "No"
  },
  {
    "molecule": "CC(C)(C)C(O)(CCc1ccc(Cl)cc1)Cn1cncn1 (stereo unspecified)",
    "category": "No"
  },
  {
    "molecule": "[O-][Cl+]O",
    "category": "No"
  },
  {
    "molecule": "CO[C@@H]1[C@H](OC(=O)NC(=O)CCl)CC[C@]2(CO2)[C@H]1[C@@]1(C)O[C@@H]1CC=C(C)C",
    "category": "No"
  },
  {
    "molecule": "Clc1ccc(C(c2ccc(Cl)cc2)C(Cl)Cl)cc1",
    "category": "No"
  },
  {
    "molecule": "Brc1ccc(Oc2ccccc2)cc1",
    "category": "No"
  },
  {
    "molecule": "[As]#[In]",
    "category": "No"
  },
  {
    "molecule": "OCCCl",
    "category": "No"
  },
  {
    "molecule": "CN(C)c1ccc(C(=O)c2ccc(N(C)C)cc2)cc1",
    "category": "No"
  },
  {
    "molecule": "CCN(CC)CCO",
    "category": "No"
  },
  {
    "molecule": "Oc1ccc2ccc3cccc4ccc1c2c34",
    "category": "No"
  },
  {
    "molecule": "OCCOCCO",
    "category": "No"
  },
  {
    "molecule": "Nc1ccc(Cc2ccc(N)cc2)cc1",
    "category": "No"
  },
  {
    "molecule": "CCOc1cccc(C2(N3CCN(c4ccccc4)CC3)CCC(C)CC2)c1 (stereo unspecified)",
    "category": "No"
  },
  {
    "molecule": "CC(C)(C)OOC(=O)c1ccccc1",
    "category": "No"
  },
  {
    "molecule": "c1ccc(C2CO2)cc1 (stereo unspecified)",
    "category": "No"
  },
  {
    "molecule": "Cc1ccc(N)c(N)c1",
    "category": "No"
  },
  {
    "molecule": "O=C(Nc1ccccc1)c1ccccc1I",
    "category": "No"
  },
  {
    "molecule": "Nc1ccc(Cl)cc1N",
    "category": "No"
  },
  {
    "molecule": "Nc1ccc(Oc2ccc(N)cc2)cc1",
    "category": "No"
  },
  {
    "molecule": "CCCCC(CC)COC(=O)c1ccc(C(=O)OCC(CC)CCCC)c(C(=O)OCC(CC)CCCC)c1 (stereo unspecified)",
    "category": "No"
  },
  {
    "molecule": "C1=Cc2cccc3cccc1c23",
    "category": "No"
  },
  {
    "molecule": "N#CC(Br)Br",
    "category": "No"
  },
  {
    "molecule": "CCCCOC(=O)c1ccccc1C(=O)OCc1ccccc1",
    "category": "No"
  },
  {
    "molecule": "Cc1cc(N=Nc2ccccc2C)ccc1N",
    "category": "No"
  },
  {
    "molecule": "Nc1ccc([N+](=O)[O-])cc1",
    "category": "No"
  },
  {
    "molecule": "COC(=O)Nc1nc2ccccc2[nH]1",
    "category": "No"
  },
  {
    "molecule": "CC(C)(O)c1cnn2c(-c3ccc(F)c(-c4c(F)cccc4C#N)c3)cnc2n1",
    "category": "No"
  },
  {
    "molecule": "OCCCBr",
    "category": "No"
  },
  {
    "molecule": "O=C(N[C@H](c1ccccc1)[C@@H]1CN2CCC1CC2)c1c(Cl)ccc(C(F)(F)F)c1Cl",
    "category": "No"
  },
  {
    "molecule": "CCCCCOC(=O)c1ccccc1C(=O)OCCCCC",
    "category": "No"
  },
  {
    "molecule": "Clc1ccccc1Cl",
    "category": "No"
  },
  {
    "molecule": "CNC(=O)Oc1cccc2c1OC(C)(C)C2",
    "category": "No"
  },
  {
    "molecule": "ClCCOCCCl",
    "category": "No"
  }
]
